procedure summary: protein stability index of a GFP-peptide fusion (yeast GPS) (PSI 1-4); higher = more stable; sorted into four equal gates, so the index is relative within each strain
settings: pdr5∆
Hi there, I'd appreciate the recorded protein stability index for every entry that follows.
Reply briefly: the number, and no unit.

Request: Quick one: protein stability index for RYVNLLGVTYSSPTLAT [PRE4] ?
Response: 1.35

Request: Item: PFSEGVTFSVMPPKKSW [SMC4]
Response: 2.03

Request: Same thing, different sequence: YRFFKKISEDPVKALNE [SNF12]
Response: 3.68

Request: Now the same for PVLDNPFTNEAHMWPRV [POP3]
Response: 2.94

Request: Now the sequence VLDSYTPSTNEPYARVS [FAS1]
Response: 2.76

Request: And then ANLLPARQFGYVILTTS [RPS22A] , what is it?
Response: 1.35

Request: Ok, now VAIDQDKITLHDEKTLA [SIR4]
Response: 2.22

Request: Query GSELVQKYVGEGARMVR [RPT1] next
Response: 2.84

Request: Repeat for the following sequence: YQTKKFYDYIKERSIVV [REC8]
Response: 2.81

Request: Now the sequence SPYERRLIDLIRNSGEK [RPL36A]
Response: 1.89

Request: Also need TFHDELNLKFKEKWPSL [YML103C/NUP188] , thanks.
Response: 3.57

Request: Try the sequence NRRKQSFVLNKNTIDFE [RPN4]
Response: 1.74

Request: Entry SENQRQIFCVFSGKGVH [GRR1] please
Response: 2.5

Request: Follow-up entry: NTSVLMKLKLMIVYYKD [YCS4]
Response: 1.56
